target: human α7 nicotinic acetylcholine receptor (HEK cell line stably expressing human RIC-3 and human α7) (Homo sapiens); construct: host or cells: HEK cell line (PrecisION hnAChR α7/RIC-3); assay: Automated patch-clamp electrophysiology functional assay (Assay A), IonFlux HT, whole-cell population patch; type: cell-based; details: automated patch-clamp electrophysiology functional assay (Assay A); read-out: α7 nAChR EC50
Sequence (P36544 23-502): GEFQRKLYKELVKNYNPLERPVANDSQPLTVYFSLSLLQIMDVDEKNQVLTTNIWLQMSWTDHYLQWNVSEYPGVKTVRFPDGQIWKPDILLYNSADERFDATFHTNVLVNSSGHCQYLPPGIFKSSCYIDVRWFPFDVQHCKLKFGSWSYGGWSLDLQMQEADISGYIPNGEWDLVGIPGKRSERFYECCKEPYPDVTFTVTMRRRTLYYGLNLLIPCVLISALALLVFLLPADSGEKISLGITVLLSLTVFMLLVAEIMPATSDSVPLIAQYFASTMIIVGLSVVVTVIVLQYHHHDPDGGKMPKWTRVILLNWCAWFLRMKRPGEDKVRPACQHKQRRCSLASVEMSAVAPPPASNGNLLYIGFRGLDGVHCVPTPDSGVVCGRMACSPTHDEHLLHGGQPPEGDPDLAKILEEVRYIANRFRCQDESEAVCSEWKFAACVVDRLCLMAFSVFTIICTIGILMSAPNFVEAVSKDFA
pEC50: −log10 of the molar value.
recorded_endpoint: pEC50

>  <molecule>
COc1ccc(Cl)cc1-c1noc(C2CC23CCN(S(=O)(=O)c2ccn(C)n2)CC3)n1 (racemic) [Example B4]

>  <pEC50>
5.49

$$$$

A: NS(=O)(=O)N1CCC2(CC2c2nc(-c3conc3C3CC3)no2)C(F)C1 (single isomer, unassigned) [Example I10]
B: Cn1ncc(C(F)(F)F)c1-c1nc([C@@H]2C(F)(F)C23CCN(S(N)(=O)=O)CC3)no1 [Example 14]
Problem: Of A and B , which carries the smaller reported pEC50 figure? Lab log: write the label of the selected item as the result.
Result: A

A: NS(=O)(=O)N1CCC2(CC1)[C@H](c1nc(-c3conc3C3CC3)no1)C2(F)F [Example 11]
B: NS(=O)(=O)N1CCC2(CC1)C[C@H]2c1noc(-c2ccc(F)cc2F)n1 [Example D15]
Problem: Between A and B , which one shows the larger pEC50 value? Lab log: write the label of the selected item as the result.
Result: A

A: Cc1ccc(C)c(-c2noc(C3CC34CCN(S(N)(=O)=O)CC4(F)F)n2)c1 (single isomer, unassigned) [Example I4]
B: NS(=O)(=O)N1CCC2(CC1)C(c1nc(C3CCCCC3)no1)C2(F)F (stereo not shown) [Example C6]
Problem: Between A and B , which one shows the larger pEC50 value? Lab log: write the label of the selected item as the result.
Result: B

---

target: human α7 nicotinic acetylcholine receptor (HEK cell line stably expressing human RIC-3 and human α7) (Homo sapiens); construct: host or cells: HEK cell line (PrecisION hnAChR α7/RIC-3); test: Automated patch-clamp electrophysiology functional assay (Assay A), IonFlux HT, whole-cell population patch; format: cell-based; details: automated patch-clamp electrophysiology functional assay (Assay A); read-out: α7 nAChR EC50
pEC50: −log10 of the molar value.
recorded_endpoint: pEC50

>  <compound>
COc1ccc(Cl)cc1-c1nc(C2CC23CCN(S(C)(=O)=O)CC3)no1 (single isomer, unassigned) [Example 26]

>  <reported_result>
6.32

$$$$

1: Cc1onc(C2CC2)c1-c1nnc([C@@H]2CC23CCN(S(N)(=O)=O)CC3)s1
2: NS(=O)(=O)N1CCC2(CC1)C[C@H]2c1noc(-c2cncc(OCC(F)(F)F)c2)n1
Problem: Of 1 and 2 , which carries the smaller reported pEC50 figure? Lab log: write the label of the selected item as the result.
Result: 2
(2: 5.64, 1: 6.07)

I: COc1ccc(Cl)cc1-c1noc(C2CC23CCN(S(=O)(=O)NCc2ccccn2)CC3)n1 (racemic)
II: Cc1ccc(C(F)(F)F)cc1-c1nc([C@@H]2CC23CCN(S(N)(=O)=O)CC3)no1
III: NS(=O)(=O)N1CCC2(CC1)[C@H](c1noc(-c3ccccn3)n1)C2(F)F
IV: NS(=O)(=O)N1CCC2(CC1)C[C@H]2c1noc(-c2c(F)cccc2C(F)(F)F)n1
Problem: Sort entries by pEC50 from minimum to maximum value. The labels, placed in the requested order, form the answer.
Result: I, III, IV, II
(I: 5.46, III: 5.68, IV: 5.92, II: 7.01)

I: NS(=O)(=O)N1CCC2(CC2c2nc(-c3ccccc3)no2)C(F)(F)C1 (single isomer, unassigned)
II: NS(=O)(=O)N1CCC2(CC1)[C@H](c1cc(-c3ccnc(OC(F)F)c3)no1)C2(F)F
Problem: Between I and II , which one shows the larger pEC50 value? Lab log: write the label of the selected item as the result.
Result: II
